Data origin, for the record: patent US9840520B2

measuredOn: HDAC-4 (Homo sapiens, UniProt P56524)
Sequence (P56524 whole entry): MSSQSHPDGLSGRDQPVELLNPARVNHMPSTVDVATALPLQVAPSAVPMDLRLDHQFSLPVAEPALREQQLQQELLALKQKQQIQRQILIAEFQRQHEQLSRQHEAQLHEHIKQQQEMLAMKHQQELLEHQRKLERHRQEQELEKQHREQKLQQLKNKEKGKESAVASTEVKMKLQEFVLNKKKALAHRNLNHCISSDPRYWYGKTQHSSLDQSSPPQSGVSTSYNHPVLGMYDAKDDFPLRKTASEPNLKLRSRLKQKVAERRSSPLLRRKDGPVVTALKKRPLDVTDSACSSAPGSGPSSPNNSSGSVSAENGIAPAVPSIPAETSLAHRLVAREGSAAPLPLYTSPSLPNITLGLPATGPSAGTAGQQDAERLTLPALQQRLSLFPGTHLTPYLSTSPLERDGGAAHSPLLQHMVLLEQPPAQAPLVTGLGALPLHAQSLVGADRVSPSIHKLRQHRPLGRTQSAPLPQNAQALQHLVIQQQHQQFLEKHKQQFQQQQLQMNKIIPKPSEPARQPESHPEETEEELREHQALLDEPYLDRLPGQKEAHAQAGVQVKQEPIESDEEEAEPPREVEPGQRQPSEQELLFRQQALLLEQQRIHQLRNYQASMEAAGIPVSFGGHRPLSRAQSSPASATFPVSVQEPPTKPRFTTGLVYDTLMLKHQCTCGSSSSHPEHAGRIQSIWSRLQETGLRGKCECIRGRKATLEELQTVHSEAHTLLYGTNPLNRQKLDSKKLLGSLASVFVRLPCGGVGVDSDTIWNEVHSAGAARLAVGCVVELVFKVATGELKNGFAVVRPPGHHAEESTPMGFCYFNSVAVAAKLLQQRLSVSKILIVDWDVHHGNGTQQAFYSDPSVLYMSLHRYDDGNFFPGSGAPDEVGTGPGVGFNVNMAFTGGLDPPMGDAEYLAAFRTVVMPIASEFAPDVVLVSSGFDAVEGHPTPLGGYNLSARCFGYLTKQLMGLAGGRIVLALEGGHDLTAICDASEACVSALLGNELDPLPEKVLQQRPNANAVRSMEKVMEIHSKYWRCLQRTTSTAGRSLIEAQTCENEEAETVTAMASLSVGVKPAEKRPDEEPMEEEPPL
propertyName: IC50

>>> print(df.to_string())
                                   molecule  valuemeasured
0  Cn1cnc2c(NC3CCCCC3)nc(Nc3ccc(OCCCCCCC(=O)NO)cc3)nc21 [Example 8]       > 100 µM

* * *

measuredOn: HDAC-7 (Homo sapiens, UniProt Q8WUI4)
Sequence (Q8WUI4 1-952): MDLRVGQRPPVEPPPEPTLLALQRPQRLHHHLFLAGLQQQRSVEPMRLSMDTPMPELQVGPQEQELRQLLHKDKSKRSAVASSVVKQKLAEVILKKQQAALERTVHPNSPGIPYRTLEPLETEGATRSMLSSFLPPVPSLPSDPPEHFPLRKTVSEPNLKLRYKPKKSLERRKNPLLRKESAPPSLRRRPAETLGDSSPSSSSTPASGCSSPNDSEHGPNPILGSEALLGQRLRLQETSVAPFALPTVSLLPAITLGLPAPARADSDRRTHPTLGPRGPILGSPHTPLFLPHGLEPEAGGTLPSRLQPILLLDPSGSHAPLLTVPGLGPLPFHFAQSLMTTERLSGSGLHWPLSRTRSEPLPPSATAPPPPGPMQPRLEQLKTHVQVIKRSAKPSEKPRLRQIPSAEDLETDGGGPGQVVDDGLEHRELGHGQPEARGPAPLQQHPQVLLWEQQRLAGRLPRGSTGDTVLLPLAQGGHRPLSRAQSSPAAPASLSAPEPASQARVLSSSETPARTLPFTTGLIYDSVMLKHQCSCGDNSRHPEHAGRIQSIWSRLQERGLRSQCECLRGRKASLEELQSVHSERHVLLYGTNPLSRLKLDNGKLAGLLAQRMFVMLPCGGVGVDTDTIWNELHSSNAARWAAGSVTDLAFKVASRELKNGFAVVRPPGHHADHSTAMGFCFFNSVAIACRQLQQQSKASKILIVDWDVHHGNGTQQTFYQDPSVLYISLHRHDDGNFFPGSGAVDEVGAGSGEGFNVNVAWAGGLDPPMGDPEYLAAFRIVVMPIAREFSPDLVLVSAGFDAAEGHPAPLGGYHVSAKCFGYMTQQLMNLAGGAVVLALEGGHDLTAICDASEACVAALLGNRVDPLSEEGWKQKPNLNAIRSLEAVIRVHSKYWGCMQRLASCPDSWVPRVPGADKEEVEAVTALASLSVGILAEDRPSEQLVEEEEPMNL
propertyName: IC50

>>> print(df.to_string())
                                 smilescode                             measuredon  propertyname  valuemeasured
0  Cn1cnc2c(NC3CCCCC3)nc(Nc3ccc(OCCCCCCC(=O)NO)cc3)nc21  HDAC-7 (Homo sapiens, UniProt Q8WUI4)          IC50       > 100 µM
